Where do these numbers come from? They come from patent US20170058314A1.

Test system: log phase and stationary phase B. burgdorferi culture
ASSAY PROCEDURE: Antibiotic exposure assay, SYBR Green I/PI (drugs alone and combinations)
CONDITION CONTEXT: 10 μg/mL drugs or combinations, 7 days
EXPERIMENTAL ENDPOINT: Live cell %, ten day old stationary phase culture (in brackets)

smiles_structure=C[C@@H]1CC[C@H]2[C@@H](C)C(=O)O[C@@H]3O[C@@]4(C)CC[C@@H]1[C@]32OO4 meas_value=73%
smiles_structure=CCCCCCCCCC(=O)N[C@@H](Cc1c[nH]c2ccccc12)C(=O)N[C@H](CC(N)=O)C(=O)N[C@@H](CC(=O)O)C(=O)N[C@@H]1C(=O)NCC(=O)N[C@@H](CCCN)C(=O)N[C@@H](CC(=O)O)C(=O)N[C@H](C)C(=O)N[C@@H](CC(=O)O)C(=O)NCC(=O)N[C@H](CO)C(=O)N[C@@H]([C@H](C)CC(=O)O)C(=O)N[C@@H](CC(=O)c2ccccc2N)C(=O)O[C@@H]1C meas_value=48%
smiles_structure=CCN1CCN(C(=O)N[C@@H](C(=O)N[C@@H]2C(=O)N3C(C(=O)O)=C(CSc4nnnn4C)CS[C@H]23)c2ccc(O)cc2)C(=O)C1=O meas_value=64%
smiles_structure=CO[C@@]1(NC(=O)CSCC#N)C(=O)N2C(C(=O)O)=C(CSc3nnnn3C)CS[C@@H]21 meas_value=53%
smiles_structure=O=C1CN(/N=C/c2ccc([N+](=O)[O-])o2)C(=O)N1 meas_value=82%
smiles_structure=C[C@H]1c2cccc(O)c2C(=O)C2=C(O)[C@]3(O)C(=O)C(C(N)=O)=C(O)[C@@H](N(C)C)[C@@H]3[C@@H](O)[C@@H]21 meas_value=72%
smiles_structure=Nc1ccc(S(=O)(=O)Nc2ccc(Cl)nn2)cc1 meas_value=68%
